System: SF-268 CNS
ASSAY_NOTES: NCI-60 one-dose screen, 48 h (100 = growth as untreated, 0 = no growth, -100 = all killed)
REPORTED_CONDITIONS: 100 µM
The panel holds about 83,000 compounds, 20% with a hit somewhere; the sample as a whole holds those more often. Calls of active or inactive are those of the source. The calls were made as follows: active = growth percent below 10; inactive = the rest.
VALUE_KIND: growth

Solved entries (count: 5):
Task item: # value lookup — system SF-268 CNS, readout growth, item `O=C(/C=C/c1cccc(Oc2ccc(Cl)cc2)c1)c1ccccc1`
Reply: -78.3% (active)

Task item: And `COc1ccc(C(=O)/C=C/c2ccc(OCc3cccc(C(F)(F)F)c3)c(OC)c2)cc1OC` ?
Reply: 14.6% (inactive)

Task item: // same read-out, input: `CC(=O)/C=C/c1ccc(N(CCO)Cc2ccc(C(C)(C)C)cc2)cc1`
Reply: -82.2% (active)

Task item: What do you have for `CC(=O)/C=C/c1ccc(N(C)Cc2ccc(C(C)(C)C)cc2)cc1` ?
Reply: -76.8% (active)

Task item: Moving on to the next compound: `CC(=O)/C=C/c1ccc(OCc2ccc(Cl)cc2)cc1`
Reply: 52.3% (inactive)

Next up:
Task item: What reported growth corresponds to `COc1ccc(C(=O)/C=C/c2ccc(OCc3ccc(Cl)cc3)cc2)cc1OC` on SF-268 CNS?
Reply: 14% (inactive)

* * *

Test system: NCI-H460 lung
ASSAY_NOTES: NCI-60 one-dose screen, 48 h
REPORTED_CONDITIONS: 10 µM unless noted
About 83,000 compounds went through this panel and 20% of them were active in at least one assay; those are over-represented in the sample as a whole. The source made the active and inactive calls. The calls were made as follows: active = growth percent below 10; inactive = the rest.
Allowed answers: TRUE (active), FALSE (inactive)

The examples below pair each entry with its known result.
Task item: How did this test come out for `Cc1ccc(C(=O)Nc2nc3c(s2)CN(Cc2ccccc2)CC3)cn1` ?
Reply: FALSE

Task item: Proceed to `Cn1cc2c(=O)nc3c(-c4nc5ccccc5[nH]4)n[nH]n3c2n1`
Reply: FALSE

Task item: Repeat with `CN1C(=O)/C(=C/c2ccc(C(=O)Nc3ncc(Cc4ccccc4Cl)s3)cc2)SC1=S`
Reply: FALSE

Task item: Same for `N=c1c2c(-c3ccccc3)c(-c3ccccc3)oc2ncn1NC(=O)c1cccnc1`
Reply: FALSE

Task item: Further, for `COc1ccc(CCNC(=O)COc2cc3c(Nc4ccc(F)c(Cl)c4)ncnc3cc2OC)cc1OC` ?
Reply: FALSE

---
Task item: Outcome logged for `CCOC(=O)c1cnn(-c2ccc(S(N)(=O)=O)cc2)c1N` in this assay:
Reply: FALSE

Task item: Same question, `CC(C)(C)c1cc(C(C)(C)c2ccccc2)cc(Cc2cc(C(C)(C)c3ccccc3)cc(C(C)(C)C)c2O)c1O` this time
Reply: FALSE

Task item: Repeat for the following compound: CCOC(=O)CC1CSC(c2cccc(Cl)c2)=N1 (configuration not stated)
Reply: FALSE

* * *

Test system: RXF 393 renal
ASSAY_NOTES: NCI-60 one-dose screen, 48 h (100 = growth as untreated, 0 = no growth, -100 = all killed)
REPORTED_CONDITIONS: 10 µM unless noted
The panel holds about 83,000 compounds, 20% with a hit somewhere; the sample as a whole holds those more often.
VALUE_KIND: growth (%)
Use % as the unit, but write only the number.

// solved cases for growth follow
Task item: GET /values?readout=growth&item= `COc1nc2ccc(C)cc2cc1/C=[N+](\[O-])c1ccccc1`
Reply: 101

Task item: Same question, COC(=O)/C=C1/SC(N2N=C(c3cccs3)CC2c2ccc(F)cc2)=NC1=O (centres undefined) this time
Reply: 48.7

Task item: Entry to check: `c1ccc(-c2cc(-c3cc(-c4ccccc4)on3)no2)cc1`
Reply: 74.8

Task item: Similarly, `Cn1c(=O)c2c(nc(Nc3cc(=O)[nH]c(=O)[nH]3)n2Cc2ccccc2)n(C)c1=O` ?
Reply: 81.7

Task item: Next record, please: CCCCC1COc2cccc3c2N1C=C/C3=C\C(=O)N(C)c1cccc(Cl)c1 (centres undefined)
Reply: 108

New cases:
Task item: Looking for the measured growth of `COc1ccc(NC(=O)Nc2ccccc2CNc2nc(Nc3ccc(OCCN4CCCC4)cc3)ncc2Cl)cc1` , can you help?
Reply: -75.6

Task item: Same again, this time with CCN1C(=O)N(c2ccccc2)C2NC(=S)N(/N=C/C=C/c3ccccc3)C21 (centres undefined)
Reply: 9.01

Task item: Okay, and CCCCC(NC(=O)CN1C(=O)/C(=C/C(C)=C/c2ccccc2)SC1=S)C(=O)O (centres undefined) ?
Reply: 105

Task item: // repeat for CC12OC(CC(O)C1O)n1c3ccccc3c3c4c(c5c6ccccc6n2c5c31)C(=O)N(CCN1CCOCC1)C4=O (centres undefined) and report
Reply: -6.91
